These data points were gathered from the supplement of paper PMC9170038.

I'd appreciate it if you could supply apparent KD of MS2 coat protein values for the items below.
- System: MS2 coat protein
- METHOD: apparent KD of MS2 coat protein; designed switch direction (-1 OFF switch, 1 ON switch): 1; higher = weaker reporter binding
- ASSAY_CONDITIONS: Eterna round: R95; input ligand: microRNA oligo, concentration not stated
One number for each entry, in nM.

Solved cases (3 shown):
RESIDUE_SEQUENCE	SUBJECT_OF_TEST	apparent KD of MS2 coat protein, nM
GGAGCCGGCACUGAGGAUAUUCGUAUUAAAACAUGAGGAUCACCCAUGUAGGCCAGAAGGCCUUGGGAGAAGGCAGGUCGGCCCG [Bibimoar - 5] (puzzle: Same State 2)	MS2 coat protein	33.9
GGAGGAUGAGCGUAGGAUAUAGGAGGAGUGACAUGAGGAUCACCCAUGUGGUAGGAGGGAGGGUACUAGAAGGACGAGGAAGAGG [JR_SS2_Sub070] (puzzle: Same State 2)	MS2 coat protein	64.5
UCUUGGUUUUUGCUCGUUUUUUGUGUUGAACAUGAGGAUCACCCAUGUAUUAUACGGUCCGGUUUAGUAGUGGUCCA [JMF 78] (puzzle: Sensor for hsa-mir-208a)	MS2 coat protein	83

I would be grateful if you could provide apparent KD of MS2 coat protein for each of the following entries.
1. UGGAUCUAGGCUUGCCUGGGUCCAUGUUGACAUGAGGAUCACCCAUGUGUAUUUUUUAAGCUUUUUGUUUGUCAACU [JL A Humble Attempt mod 9] (puzzle: Sensor for hsa-mir-208a)
2. CAGCGCUGUCGAGAGGAUAUGCGGUGAUAGACAUGAGGAUCACCCAUGUUAGCGAUAGCAUUACGGUAGAAGGCUCUACAGCUGC [Soteed - 12] (puzzle: Same State 2)
3. CAGCGCUGUCGAGAGGAUAUGCGGUGAUGGACAUGAGGAUCACCCAUGUUAGCGAUAGUAUUACGGUAGAAGGCUCUACAGCUGC [Soteed - 11] (puzzle: Same State 2)
4. AUAAAACAUGAGGAUCACCCAUGUCAACAAAGUCGAGGAUAUGGGCAAAUAAAAUAAGAUCCAGAAGGCGAAUAAU [salish99_ss1_r3_016] (puzzle: Same State 1)
5. UAAGAACAUGAGGAUCACCCAUGUGGAAAGAACACAGGAUAUCAUAGAAGGACGCGACUAUGAGAAGGGUGACACG [Lequat] (puzzle: Same State 1)
6. UUGGUGUAGAUACAGGAUAUGUUGCUUGUUACAUGAGGAUCACCCAUGUAUCUAUGAGAUUAAAUGCAGAAGGGUGCACAUCACU [salish99_ss2_r3_091] (puzzle: Same State 2)
7. GGUAAACAUGAGGAUCACCCAUGUAAUAUAAUGGGAGGAUAUCUGAAUUAAUUAAAUUAAGGAGAAGGCCUAAUGU [Mat - Same State 1 - Mod of Eli - D50] (puzzle: Same State 1)

Outgoing:
1: 12.5; 2: 73.3; 3: 43.6; 4: 36.3; 5: 104; 6: 124; 7: 462

I would be grateful if you could provide apparent KD of MS2 coat protein for each of the following entries.
1. GGUCCAGCCUGAGCUGGACCACAGCAUGUACAUGAGGAUCACCCAUGUCAUGUACAAGCUUUUUGUUUAAAAUAAAA [Sensorship 13 - Jieux - Sensor for hsa-mir-208a] (puzzle: Sensor for hsa-mir-208a)
2. UUAUCACAUGAGGAUCACCCAUGUUAUACUUUUUUAGGAUAUUUUAUGUAUGACCAAAUAAAAGAAGGAGGAAUAA [flagellum_key_01] (puzzle: Same State 1)
3. GCAGAACAUGAGGAUCACCCAUGUCUCUAAUAUUGAGGAUAUGGGCACGGUAUAUCCGAACCAGAAGGCGAACUGC [SS1 Teenbexe 16] (puzzle: Same State 1)
4. AAAGCCCGUGCUAAGGAUAUGCGUACUCCUACAUGAGGAUCACCCAUGUCCCGCCGAAAAGGAAGGCAGAAGGUAGCACGAGCAA [Teerarti] (puzzle: Same State 2)
5. AACAAUCUAUCUGAGGAUAUCAUGAUAAGAACAUGAGGAUCACCCAUGUGCAGGAAAACUGCAUAUGAGAAGGCAGAUAGAUUGG [Mat - Same State 2 - Mod - D19] (puzzle: Same State 2)
6. ACAAGCUUUUCUGCAUUGAAAGGUUGAUAACAUGAGGAUCACCCAUGUUUAUAUGAAAAUAAUGCUCCUCGUCUUAU [JR_SHM208A_Sub094] (puzzle: Sensor for hsa-mir-208a)

Outgoing:
30.5
44.4
322
96.5
492
11.4

I would be grateful if you could provide apparent KD of MS2 coat protein for each of the following entries.
1. GAAAAGGCAACGCAGGAUAUGAAAGGUGAAACAUGAGGAUCACCCAUGUGCUACCUUCCGAUAAAUCAGAAGGGCGACGCCUAAA [Usbemaus] (puzzle: Same State 2)
2. GGAGCCUGCACUGAGGAUAUUCAUAUUUAAACAUGAGGAUCACCCAUGUAGGCCAGAAGGCCUUGGGAGAAGGCAGGUCGGCUCG [salish99_ss2_r3_083] (puzzle: Same State 2)
3. AGCAUACAUGAGGAUCACCCAUGUCAACUUAGUCGAGGAUAUGGGCAGCCCUGAGGCGAACCAGAAGGCGAAUUGA [Mat - Same State 1 - Mod of JL - D1] (puzzle: Same State 1)
4. GUAAAACAUGAGGAUCACCCAUGUAAUAAUAUGGGAGGAUAUCAGAAUGUAUGUAUGUAAUGAGAAGGCCUAAAUG [Mat - Same State 1 - Mod of Eli - D74] (puzzle: Same State 1)

Outgoing:
1. 8.96
2. 372
3. 51.5
4. 1610

* * *

I'd appreciate it if you could supply apparent KD of MS2 coat protein values for the items below.
- Tested on: MS2 coat protein
- METHOD: apparent KD of MS2 coat protein; higher = weaker reporter binding
- ASSAY_CONDITIONS: Eterna round: R107; input ligand: none
Please provide the amount together with its unit, number first.

Solved cases (2 shown):
RESIDUE_SEQUENCE	SUBJECT_OF_TEST	READOUT_VALUE
AGUCUUGUGGGAAGGAGCGCAUACUUCACAUGAGGAUCACCCAUGUCAAGACGUGAGUCAGUGCAGGUAGGUCGCCUAACUAAGA [Same State - Arginine B (Freestyle 15)]	MS2 coat protein	30.3 nM
AACAGGGUCUGAAGGAGCGCGAUCACAUGAGGAUCACCCAUGUGAAAUGGUAGAUGAUACUCGCAGGUAGGUCGCAGUACUUGAC [Same State Arginine B GF 15]	MS2 coat protein	33.6 nM

Data point: ACAUGAGGAUCACCCAUGUAAGAUUCAGAAGGAGCGGGAAAUAACCCAGGUAGGUCGCUGAAGUUUGGUUUAUUGUGUUCGUGAA [#07 Exclusion - Arginine A] ; apparent KD of MS2 coat protein = 10.4 nM

* * *

- System: K4 kissing-loop RNA reporter
- METHOD: apparent KD of K4 kissing-loop reporter; higher = weaker reporter binding
- ASSAY_CONDITIONS: Eterna round: R107; input ligand: FMN 200 uM
MEASURED_METRIC: apparent KD of K4 kissing-loop reporter (µM)
Give bare numbers, in µM.

RESIDUE_SEQUENCE	U	apparent KD of K4 kissing-loop reporter
UGUACCGAGUCAGGAUAUCGCGUCGAAAGACGAAACGAGUGAUGUUCGAAUCGAUCGAAAGAUCGUCGAGAAGGGACUUGGUACU [FmnBS 22 #SwitchBubble #StaticStem #DoubleMagnetSystem]	µM	0.219
UGUGCCAAAUGUGAUACCAGCUUCCUGCAGUGAUGUUGCAUACGAGUGAUGUUCGUCCGAGGCCCUUGGCAGCGCAGUCGUUUGA [Same State Theophylline B GF 27]	µM	0.45
GGCAGUGAUGUUGCCUAAGCAACGCAUGCGGAGGAUAUUCGUUCGGGAAGAAGGCCGCAGCGUUCUCUCGAGUGAUGUUCGAGUA [Same State FMN A GF 21]	µM	0.161
AAGUCAUAUAGAAGGAGCGUGUUUUUUAAUUUGUUUUCAUGAUCGAGUGAUGUUCGAUAUACACAGGUAGGUCGCUGUAUGAUAA [hbob_SS_Arginine_B_2t143]	µM	0.128

Continue with the sequence presented below.
Data point: UGACUGGAUGGAAGGAGCGCUAAACUCCUAGUGAUGUUAGGGACACGAGACAAAGUCUCGAGGCAGGUAGGUCGCCAUCUAGUCU [FiskerMod 7 - Jieux - Same State - Arginine B] ; apparent KD of K4 kissing-loop reporter = 0.225

* * *

I'd appreciate it if you could supply apparent KD of K4 kissing-loop reporter values for the items below.
- System: K4 kissing-loop RNA reporter;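 further: bound reporter read as fluorescence of individual clusters on recovered sequencing chips by microscopy, with normalized cluster intensities fitted with a binding model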
- METHOD: apparent KD of K4 kissing-loop reporter; higher = weaker reporter binding
- ASSAY_CONDITIONS: Eterna round: R107; input ligand: theophylline 20 uM
One number for each entry, in nM.

I would be grateful if you could provide apparent KD of K4 kissing-loop reporter for each of the following entries.
1. GGUAGCAUGGCGGCCGCCACUCUUCAUUAGUGAUGUUAAUGCCGAGUGGGCAAACUCCGCCAGGAGAGGACCGGGCCAUGCUACC
2. AGGAUCCGUCGACAAAAGUCGACAUAAACCAAGGAUAUGACGAAAGUCAGAAGGUGGUCAUAAGGCCAGUGAUGUUGGUGGAUCC [FmnA 12 #SwitchBubble #K4Late]
3. AAGAGGUAGGCGGCCGCCACUAGUUGUGAACACAUACAAGCCAGUGAUGUUGGUAUGGUGGGCGGUAGGACCGGGCCUACCUGAA [Exclusion - Tryptophan B (Freestyle 17)]

Outgoing:
62.7
796
250
